test: Oral bioavailability in Sprague-Dawley rat at 50 mg/kg measured upto 24 hrs by HPLC analysis; assay type: ADME, organism-based; conditions: in vivo
MEASURE NAME: bioavailability (%)

1. CON=C1CCC(CN2CCN(c3nc(=O)c4cc(C(F)(F)F)cc([N+](=O)[O-])c4s3)CC2)CC1 (configuration not stated) = 40.4
2. O=c1nc(N2CCN(CC3CCCCC3)CC2)sc2c([N+](=O)[O-])cc(C(F)(F)F)cc12 = 10.2

###

Attribute: half-life
experiment: Half life in ICR mouse at 25 mg/kg, po measured upto 24 hrs by HPLC analysis; format: ADME, organism-based; conditions: in vivo
MEASURE NAME: half-life (h)

1) O=c1nc(N2CCN(CC3CCCCC3)CC2)sc2c([N+](=O)[O-])cc(C(F)(F)F)cc12 = 2.78
2) CCON=C1CCC(CN2CCN(c3nc(=O)c4cc(C(F)(F)F)cc([N+](=O)[O-])c4s3)CC2)CC1 (stereo not drawn) = 2.29
3) CON=C1CCC(CN2CCN(c3nc(=O)c4cc(C(F)(F)F)cc([N+](=O)[O-])c4s3)CC2)CC1 (stereo not drawn) = 1.65

###

molecular target: UniProt Q12809; assay: Inhibition of human ERG transfected in HEK293 cells by whole-cell patch clamp method; assay type: cell-based; conditions: hek293
Sequence (Q12809 whole entry): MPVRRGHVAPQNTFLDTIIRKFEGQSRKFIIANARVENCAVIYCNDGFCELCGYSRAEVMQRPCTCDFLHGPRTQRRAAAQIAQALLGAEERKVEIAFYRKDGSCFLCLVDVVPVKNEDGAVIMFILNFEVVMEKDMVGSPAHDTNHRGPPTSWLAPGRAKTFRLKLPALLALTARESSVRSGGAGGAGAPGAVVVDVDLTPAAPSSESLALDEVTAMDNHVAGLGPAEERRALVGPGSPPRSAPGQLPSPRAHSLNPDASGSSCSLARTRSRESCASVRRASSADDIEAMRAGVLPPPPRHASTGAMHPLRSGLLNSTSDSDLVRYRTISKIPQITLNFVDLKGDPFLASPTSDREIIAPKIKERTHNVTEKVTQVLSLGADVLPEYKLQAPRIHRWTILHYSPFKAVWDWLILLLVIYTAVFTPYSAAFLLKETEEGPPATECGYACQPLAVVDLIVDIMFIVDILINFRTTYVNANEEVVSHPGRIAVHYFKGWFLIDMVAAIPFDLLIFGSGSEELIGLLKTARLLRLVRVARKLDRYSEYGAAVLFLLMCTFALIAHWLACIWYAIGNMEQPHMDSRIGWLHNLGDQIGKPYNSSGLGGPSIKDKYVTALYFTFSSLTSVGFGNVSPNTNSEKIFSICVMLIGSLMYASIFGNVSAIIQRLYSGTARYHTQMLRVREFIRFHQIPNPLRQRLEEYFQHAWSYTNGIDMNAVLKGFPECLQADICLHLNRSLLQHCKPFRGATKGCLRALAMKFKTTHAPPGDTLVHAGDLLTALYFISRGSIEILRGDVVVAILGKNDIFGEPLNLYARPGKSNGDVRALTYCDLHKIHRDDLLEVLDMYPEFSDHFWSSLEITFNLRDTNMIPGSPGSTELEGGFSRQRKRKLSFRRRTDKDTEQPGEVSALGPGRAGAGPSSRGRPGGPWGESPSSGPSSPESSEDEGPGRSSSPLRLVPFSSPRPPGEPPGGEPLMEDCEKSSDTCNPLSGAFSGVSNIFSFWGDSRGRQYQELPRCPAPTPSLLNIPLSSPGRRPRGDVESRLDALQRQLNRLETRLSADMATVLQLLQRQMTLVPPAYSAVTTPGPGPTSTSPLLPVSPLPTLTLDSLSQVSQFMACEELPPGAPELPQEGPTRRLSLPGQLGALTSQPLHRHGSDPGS
pIC50: −log10 of the molar value.
MEASURE NAME: pIC50

1) CCON=C1CCC(CN2CCN(c3nc(=O)c4cc(C(F)(F)F)cc([N+](=O)[O-])c4s3)CC2)CC1 (stereo unspecified) = 4.41

###

Entries annotated with measured Tmax
test: Tmax in Sprague-Dawley rat at 50 mg/kg, po measured upto 24 hrs by HPLC analysis; format: ADME, organism-based; details: in vivo
MEASURE NAME: Tmax (h)

1) CON=C1CCC(CN2CCN(c3nc(=O)c4cc(C(F)(F)F)cc([N+](=O)[O-])c4s3)CC2)CC1 (configuration not stated) = 1.67
2) O=c1nc(N2CCN(CC3CCCCC3)CC2)sc2c([N+](=O)[O-])cc(C(F)(F)F)cc12 = 1.33

###

assay: Half life in Sprague-Dawley rat at 25 mg/kg, po measured upto 24 hrs by HPLC analysis; assay type: ADME, organism-based; details: in vivo
MEASURE NAME: half-life (h)

1. O=c1nc(N2CCN(CC3CCCCC3)CC2)sc2c([N+](=O)[O-])cc(C(F)(F)F)cc12 [MACOZINONE] = 4.23
2. CON=C1CCC(CN2CCN(c3nc(=O)c4cc(C(F)(F)F)cc([N+](=O)[O-])c4s3)CC2)CC1 (configuration not stated) = 3.2

###

molecular target: CYP3A4 (Homo sapiens); assay: Inhibition of CYP3A4 (unknown origin); format: ADME
Sequence (P08684 whole entry): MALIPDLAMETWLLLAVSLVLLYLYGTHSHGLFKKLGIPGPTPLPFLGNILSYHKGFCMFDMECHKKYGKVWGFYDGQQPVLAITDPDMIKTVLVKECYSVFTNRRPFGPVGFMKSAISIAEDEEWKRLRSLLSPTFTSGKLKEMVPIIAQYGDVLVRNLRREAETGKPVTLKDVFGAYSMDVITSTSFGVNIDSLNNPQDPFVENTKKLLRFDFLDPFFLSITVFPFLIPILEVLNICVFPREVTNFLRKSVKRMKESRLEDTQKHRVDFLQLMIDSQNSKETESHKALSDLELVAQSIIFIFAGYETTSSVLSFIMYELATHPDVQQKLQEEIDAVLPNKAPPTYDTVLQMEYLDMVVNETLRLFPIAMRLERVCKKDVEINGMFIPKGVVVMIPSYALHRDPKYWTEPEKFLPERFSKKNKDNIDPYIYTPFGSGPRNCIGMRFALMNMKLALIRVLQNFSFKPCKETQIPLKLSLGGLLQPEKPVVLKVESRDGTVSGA
MEASURE NAME: IC50

1. CCON=C1CCC(CN2CCN(c3nc(=O)c4cc(C(F)(F)F)cc([N+](=O)[O-])c4s3)CC2)CC1 (configuration not stated) = > 10 µM
2. CON=C1CCC(CN2CCN(c3nc(=O)c4cc(C(F)(F)F)cc([N+](=O)[O-])c4s3)CC2)CC1 (configuration not stated) = > 10 µM

###

target: Cytochrome P450 2D6 (Homo sapiens)
Sequence (P10635 whole entry): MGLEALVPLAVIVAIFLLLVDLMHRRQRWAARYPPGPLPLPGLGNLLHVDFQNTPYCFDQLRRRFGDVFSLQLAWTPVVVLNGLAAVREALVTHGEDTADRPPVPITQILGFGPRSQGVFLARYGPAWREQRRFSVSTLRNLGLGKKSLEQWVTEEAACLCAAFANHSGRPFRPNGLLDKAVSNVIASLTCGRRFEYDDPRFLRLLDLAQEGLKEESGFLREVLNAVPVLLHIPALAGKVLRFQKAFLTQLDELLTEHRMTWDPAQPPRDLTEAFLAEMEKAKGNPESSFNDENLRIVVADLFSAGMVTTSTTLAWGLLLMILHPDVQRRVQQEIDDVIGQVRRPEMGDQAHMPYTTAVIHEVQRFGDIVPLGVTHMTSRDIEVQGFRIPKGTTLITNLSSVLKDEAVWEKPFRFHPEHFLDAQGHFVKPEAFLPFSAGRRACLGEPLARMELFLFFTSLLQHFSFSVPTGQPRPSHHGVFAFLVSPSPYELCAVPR
pIC50: −log10 of the molar value.
MEASURE NAME: pIC50

1) O=c1nc(N2CCN(CC3CCCCC3)CC2)sc2c([N+](=O)[O-])cc(C(F)(F)F)cc12 [MACOZINONE] = < 5.00
